Reported values of IC50 for individual entries
biological target: METTL3/METTL14 (Homo sapiens, UniProt Q86U44); assay: Competive inhibition of full length human METTL3/METTL14 expressed in Sf9 cells using single strand RNA 5'-AAGAACCGGACUAAGCU-3' and SAM as substrate incubated for 40 mins by HTRF assay

Nc1ncnc2c1ncn2[C@@H]1O[C@H](C(=O)NCC2CCNCC2)[C@@H](O)[C@H]1O (single isomer, unassigned) :: > 250 µM

Qu. For the compound shown here, "Nc1ncnc2c1ncn2C[C@H]1OC[C@@H](O)[C@@H](O)[C@H]1O" , give the reported IC50.
Ans. > 250 µM

###

molecular target: N6-adenosine-methyltransferase catalytic subunit (Homo sapiens, UniProt Q86U44)
readout: pKd
# reply with the number alone; pKd is -log10 of concentration in mol/L

Qu. Record request: pKd value, item "COc1cc2c(cc1Cc1cccc(Cl)c1F)c(=O)c(C(=O)O)cn2[C@H](CO)C(C)C"
Ans. 8.32

###

test system: Kasumi 1; assay: Antiproliferative activity against human Kasumi 1 cells assessed as inhibition of cell proliferation incubated for 120 hrs by CellTiter-Glo assay; type: functional, cell-based; conditions: Kasumi 1, 120 h
Readings of IC50 for the listed molecules
The figure you give is taken to be in nM; do not add the unit.

Please review the entries below; each comes with its answer.
COc1cc(-c2cn(Cc3cn4cc(CNCC56CC(F)(C5)C6)ccc4n3)nn2)c2cncn2c1 :: 1150
Nc1ncnc2c1c(Br)cn2[C@@H]1C[C@H](c2ccc3cc(CN4CCC5(CCC5)C4)[nH]c3c2)[C@@H](O)[C@H]1O (single isomer, unassigned) :: 950
Nc1ncnc2c1c(Br)cn2[C@@H]1C[C@H](c2ccc3cc(CNCC45CC(F)(C4)C5)[nH]c3c2)[C@@H](O)[C@H]1O :: 950
COc1cc(-c2cn(Cc3cn4cc(CNCC5CCC5)ccc4n3)nn2)c2cncn2c1 :: 316
Nc1ncnc2c1ccn2[C@@H]1C[C@H](c2ccc3cc(CN4CCC5(CCC5)C4)[nH]c3c2)[C@@H](O)[C@H]1O (single isomer, unassigned) :: 950

Qu. Report IC50 for "COc1cc(-c2cn(Cc3cn4cc(CNCC56CC(C5)C6)ccc4n3)nn2)c2cncn2c1" please.
Ans. 419

Qu. Name the reported IC50 value associated with the molecule "Nc1ncnc2c1c(Cl)cn2[C@@H]1C[C@H](c2ccc3cc(CNCC45CC(F)(C4)C5)[nH]c3c2)[C@@H](O)[C@H]1O"
Ans. 950

###

test system: OCI-AML2; experiment: cells; conditions: Homo sapiens, OCI-AML2, 168 h
readout: IC50
Please state the number and follow it with the unit.

Qu. Form field: IC50 recorded for "O=C(NCc1cn2cc(CNCC3CCCCC3)ccc2n1)c1cc(=O)n2ccccc2n1" with OCI-AML2 (enter value)
Ans. 1780 nM

###

The entries below come with measured pIC50 values attached.
biological target: METTL3/METTL14 (Homo sapiens); assay: Inhibition of full-length His-tagged METTL3/full length FLAG-tagged METTL14 (unknown origin) expressed in baculovirus expression system using synthetic RNA 5'P-uacacucgaucuggacuaaagcugcuc-3' and SAM as substrate preincubated for 10 mins followed by substrate addition and measured after 60 mins by RF/MS analysis
# log scale: pIC50 equals minus log10 of the concentration in mol/L

Clc1cc(-c2cn(Cc3cn4cc(CNCC5CCC5)ccc4n3)nn2)c2cn[nH]c2c1 :: 8.36

Qu. Bench note: what pIC50 did "COc1cc(-c2cn(Cc3cn4cc(CNCC5CCC5)ccc4n3)nn2)c2cn[nH]c2c1" show?
Ans. 8.44
